# viability increase listing for each entry below
Experiment: doxorubicin toxicity protection in MRP-1 cells – H69AR cells, CellTiter-Glo, duplicate, MRP-1 activator project, pilot screen (AID 807);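 also: compound pretreatment 18-22 h then 72 h combined with doxorubicin; 0% = doxorubicin alone and 100% = vehicle without doxorubicin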
Conditions: H69AR viability with doxorubicin, CellTiter-Glo luminescence; at 10 µM; hits give high values
Give just the number in %; leave the unit off.

Worked set:
compound=CCOc1ccccc1Oc1c(C)oc2cc(OC(=O)N3CCOCC3)ccc2c1=O measurement_type="viability increase" test_value=-0.28
compound=O=C(Nc1ccccc1)c1cnc2n(c1=O)CCS2 measurement_type="viability increase" test_value=-0.69
compound="CC1(C)CC2CC(C)(CN2S(=O)(=O)c2ccc(N)cc2)C1 (centres undefined)" measurement_type="viability increase" test_value=-2.62
compound=COCCN1C=C(C(=O)OC)C(c2cc3c(cc2Br)OCO3)C(C(=O)OC)=C1 measurement_type="viability increase" test_value=-1.16
compound=CCn1c(CCNC(=O)c2ccc(OC)c(OC)c2)nc2ccccc21 measurement_type="viability increase" test_value=-2.22
compound=Cc1cc(C)c2c(=O)n(CC(=O)N3CCC(N4CCCCC4)CC3)sc2n1 measurement_type="viability increase" test_value=-7.14
compound=CCOC(=O)c1ccc2ncc(C(=O)OCC)c(NCCCN3CCOCC3)c2c1 measurement_type="viability increase" test_value=-5.66
compound="Cc1c(NC(=O)C2CCCCN2S(=O)(=O)c2ccc(Cl)cc2)c(=O)n(-c2ccccc2)n1C (centres undefined)" measurement_type="viability increase" test_value=-1.13
compound=Cc1cccc(NC(=O)CS(=O)(=O)c2cn(C)c3ccccc23)c1 measurement_type="viability increase" test_value=-3.05
compound=Cc1ccccc1-c1nc(CN2CCC(C(=O)NC3CCN(Cc4ccccc4)CC3)CC2)c(C)o1 measurement_type="viability increase" test_value=-7.96

Name the recorded viability increase of the compound listed here: `Oc1ccc(-c2n[nH]c(=S)n2Cc2ccccc2)cc1` -1.84

Name the recorded viability increase of the compound listed here: `COc1ccc(N2CCN(C(=O)c3cc4c(-c5ccc(Cl)cc5)nn(C)c4s3)CC2)cc1` -3.45

Name the recorded viability increase of the compound listed here: `CCn1cc(C(=O)NCc2ccccc2OC)c(=O)c2cc(S(=O)(=O)N(C)C)ccc21` -5.34

Name the recorded viability increase of the compound listed here: `CCCC(=O)c1cc(F)c(N2CCN(S(=O)(=O)c3ccccc3)CC2)cc1C` 1.53
